Taken from patent US8258151B2.

target: SGLT1 (Homo sapiens, UniProt P13866); experiment: SGLT1 activity measurement: 14C-AMG uptake in BHK cells transfected with SGLT1; details: AMG 50 μM, 37° C., 90 min
Sequence (P13866 whole entry): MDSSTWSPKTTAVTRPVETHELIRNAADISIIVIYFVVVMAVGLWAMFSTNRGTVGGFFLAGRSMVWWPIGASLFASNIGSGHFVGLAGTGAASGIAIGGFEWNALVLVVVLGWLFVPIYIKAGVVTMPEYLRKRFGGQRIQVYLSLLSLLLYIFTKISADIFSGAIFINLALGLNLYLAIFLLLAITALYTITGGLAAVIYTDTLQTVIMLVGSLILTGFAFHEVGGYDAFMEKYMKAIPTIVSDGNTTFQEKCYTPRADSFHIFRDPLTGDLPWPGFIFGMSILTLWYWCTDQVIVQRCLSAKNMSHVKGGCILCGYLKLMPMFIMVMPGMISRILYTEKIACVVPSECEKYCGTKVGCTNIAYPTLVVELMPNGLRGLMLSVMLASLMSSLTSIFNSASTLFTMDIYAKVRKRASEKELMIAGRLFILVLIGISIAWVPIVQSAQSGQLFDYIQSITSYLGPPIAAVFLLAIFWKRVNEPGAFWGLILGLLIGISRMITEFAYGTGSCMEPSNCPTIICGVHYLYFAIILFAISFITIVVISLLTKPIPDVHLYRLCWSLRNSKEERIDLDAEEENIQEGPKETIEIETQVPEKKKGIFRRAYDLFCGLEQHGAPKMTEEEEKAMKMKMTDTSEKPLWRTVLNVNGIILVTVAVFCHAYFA
pIC50: −log10 of the molar value.
experimental endpoint: pIC50

> print(dat)
                                smiles.text  endpoint.result
1  Cc1ccc(-c2nc3ccccn3c2Nc2c(C)cccc2C)c(OCC(N)=O)c1           < 5.00
2  CCc1cc(OCCO)cc(OCC(N)=O)c1-c1nc2ccc(F)cn2c1Nc1c(C)cccc1C           < 5.00
3  COC(=O)Cc1ccc(OCC(N)=O)c(-c2nc3ccccn3c2Nc2c(C)cccc2C)c1           < 5.00
4  COc1cc(OCC(N)=O)c(-c2nc3ccc(F)cn3c2Nc2c(C)cccc2C)c(C)c1Cl     5.00 to 6.00

----------
target: SGLT2 (Homo sapiens); construct: expressed in transfected cells; assay: SGLT2 activity measurement: 14C-AMG uptake in BHK cells transfected with SGLT2; type: cell-based; conditions: AMG 2 mM, 37° C., 90 min
// IC50 lookup, one value per entry
experimental endpoint: IC50

> print(dat)
                                    compound  experimental.endpoint   endpoint.result
 1  COc1ccc(-c2nc3ccccn3c2Nc2c(C)cccc2C)c(OCC(N)=O)c1                   IC50     10 to 1000 nM
 2  NC(=O)COc1ccccc1-c1nc2ccccn2c1Nc1c(Cl)cccc1Cl                   IC50     10 to 1000 nM
 3  COc1cc(OCC(N)=O)c(-c2nc3ccc(F)cn3c2Nc2c(C)cccc2C)cc1OC                   IC50  1000 to 10000 nM
 4  COc1cc(C)c(-c2nc3cccc(N)n3c2Nc2c(C)cccc2C)c(OCC(N)=O)c1                   IC50     10 to 1000 nM
 5  COc1cc(C)c(-c2nc3c(F)cc(F)cn3c2Nc2c(Cl)cccc2Cl)c(OCC(N)=O)c1                   IC50     10 to 1000 nM
 6  Cc1cccc(C)c1Nc1c(-c2c(C)cc(OCCN(C)C)cc2OCC(N)=O)nc2ccccn12                   IC50  1000 to 10000 nM
 7  COc1cc(C)c(-c2nc3ccc(F)cn3c2Nc2c(C)cccc2C(F)(F)F)c(OCC(N)=O)c1                   IC50     10 to 1000 nM
 8  Cc1cccc(C)c1Nc1c(-c2c(O)cccc2OCC(N)=O)nc2ccccn12                   IC50  1000 to 10000 nM
 9  Cc1cccc2nc(-c3ccccc3OCC(N)=O)c(Nc3c(Cl)cccc3Cl)n12                   IC50     10 to 1000 nM
10  Cc1cccc(C)c1Nc1c(-c2c(C)cc(OCC(N)=O)cc2OCC(N)=O)nc2ccc(F)cn12                   IC50     10 to 1000 nM
11  COc1cc(C)c(-c2nc3ccc(F)cn3c2Nc2c(Br)cc(F)cc2Br)c(OCC(N)=O)c1                   IC50     10 to 1000 nM
12  COc1cc(C)c(-c2nc3c(F)cc(F)cn3c2Nc2c(Cl)cc(F)cc2Cl)c(OCC(N)=O)c1                   IC50     10 to 1000 nM
13  Cc1cccc(C)c1Nc1c(-c2c(C)cc(OCc3ccccc3)cc2OCC(N)=O)nc2ccccn12                   IC50        > 10000 nM
14  CCc1cc(OC)cc(OCC(N)=O)c1-c1nc2ccccn2c1Nc1c(C)cc(F)cc1C                   IC50     10 to 1000 nM
15  CCc1cccc(OCC(N)=O)c1-c1nc2ccc(F)cn2c1Nc1c(C)cccc1C                   IC50     10 to 1000 nM
16  COc1cc(OC)c(-c2nc3ccc(F)cn3c2Nc2c(C)cc(F)cc2C)c(OCC(N)=O)c1                   IC50     10 to 1000 nM
17  COc1cc(C)c(-c2nc3c(N)cccn3c2Nc2c(C)cccc2C)c(OCC(N)=O)c1                   IC50     10 to 1000 nM
18  CCc1cc(OC2COC(=O)O2)cc(OCC(N)=O)c1-c1nc2ccc(F)cn2c1Nc1c(C)cccc1C (stereo not shown)                   IC50     10 to 1000 nM
19  COc1cc(C)c(-c2nc3ccc(F)cn3c2Nc2c(C)cccc2[N+](=O)[O-])c(OCC(N)=O)c1                   IC50     10 to 1000 nM
20  CCc1cc(OC)cc(OCC(N)=O)c1-c1nc2c(F)cc(F)c(N)n2c1Nc1c(C)cccc1C                   IC50     10 to 1000 nM
21  CCc1cc(OCC(N)=O)cc(OCC(N)=O)c1-c1nc2ccc(F)cn2c1Nc1c(C)cccc1C                   IC50     10 to 1000 nM
22  COc1ccc(-c2nc3ccc(F)cn3c2Nc2c(C)cc(F)cc2C)c(OCC(N)=O)c1                   IC50     10 to 1000 nM
23  Cc1cccc(C)c1Nc1c(-c2ccccc2OCC(N)=O)nc2cccc(Cl)n12                   IC50  1000 to 10000 nM
24  COc1cc(C)c(-c2nc3ccc(F)cn3c2Nc2c(C)cccc2Cl)c(OCC(N)=O)c1                   IC50     10 to 1000 nM
25  Cc1cccc(C)c1Nc1c(-c2c(C)cc(OS(=O)(=O)N(C)C)cc2OCC(N)=O)nc2ccc(F)cn12                   IC50     10 to 1000 nM
26  COc1ccc(-c2nc3ccc(F)cn3c2Nc2c(C)cccc2C)c(OCC(N)=O)c1                   IC50     10 to 1000 nM
27  CCc1cc(OCC(N)=O)cc(OCC(N)=O)c1-c1nc2ccccn2c1Nc1c(C)cccc1C                   IC50     10 to 1000 nM
28  COc1cc(OC)c(-c2nc3ccc(F)cn3c2Nc2c(C)cccc2C)c(OCC(N)=O)c1                   IC50     10 to 1000 nM
29  CCc1cc(O)cc(OCC(N)=O)c1-c1nc2ccc(F)cn2c1Nc1c(C)cccc1C                   IC50     10 to 1000 nM
30  CCc1cc(OC)cc(OCC(N)=O)c1-c1nc2ccc(F)cn2c1Nc1c(C)cccc1OC                   IC50     10 to 1000 nM
31  CCc1cc(OS(=O)(=O)N(C)C)cc(OCC(N)=O)c1-c1nc2ccc(F)cn2c1Nc1c(C)cccc1C                   IC50     10 to 1000 nM

----------
Catalogue of molecules with associated IC50
Biological target: UniProt:P31639
Sequence (P31639 1-672): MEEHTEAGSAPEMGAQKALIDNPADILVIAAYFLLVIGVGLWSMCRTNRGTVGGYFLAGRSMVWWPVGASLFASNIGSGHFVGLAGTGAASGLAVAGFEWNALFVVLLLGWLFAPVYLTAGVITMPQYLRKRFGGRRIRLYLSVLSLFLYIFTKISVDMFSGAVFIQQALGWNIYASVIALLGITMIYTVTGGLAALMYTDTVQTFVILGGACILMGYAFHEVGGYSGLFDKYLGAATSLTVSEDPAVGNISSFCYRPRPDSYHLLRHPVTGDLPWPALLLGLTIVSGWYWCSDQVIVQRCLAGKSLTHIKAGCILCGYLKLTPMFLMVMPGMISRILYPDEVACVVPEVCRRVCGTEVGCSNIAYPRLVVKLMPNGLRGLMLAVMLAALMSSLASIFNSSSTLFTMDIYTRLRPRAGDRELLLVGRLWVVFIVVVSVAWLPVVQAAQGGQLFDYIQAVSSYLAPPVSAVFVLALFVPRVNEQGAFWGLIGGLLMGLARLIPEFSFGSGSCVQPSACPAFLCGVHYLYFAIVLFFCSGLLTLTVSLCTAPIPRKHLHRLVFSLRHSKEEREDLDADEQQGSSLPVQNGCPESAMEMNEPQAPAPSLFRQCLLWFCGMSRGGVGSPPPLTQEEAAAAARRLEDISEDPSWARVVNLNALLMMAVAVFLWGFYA
Test: SGLT2 activity measurement: 14C-AMG uptake in BHK cells transfected with SGLT2
Conditions: AMG 2 mM, 37° C., 90 min
experimental endpoint: IC50

> print(dat)
                                    molecule   endpoint.result
 1  COc1cc(C)c(-c2nc3ccc(F)cn3c2Nc2c(F)cccc2F)c(OCC(N)=O)c1 [Compound A219]     10 to 1000 nM
 2  COc1cc(C)c(-c2nc3ccc(F)cn3c2Nc2c(Cl)cccc2Cl)c(OCC(N)=O)c1 [Compound A205]     10 to 1000 nM
 3  COc1cc(C)c(-c2nc3cccc(C)n3c2Nc2c(C)cccc2C)c(OCC(N)=O)c1 [Compound A206]     10 to 1000 nM
 4  CCc1cccc2nc(-c3ccccc3OCC(N)=O)c(Nc3c(C)cccc3C)n12 [Compound A13]     10 to 1000 nM
 5  COc1cc(OCC(N)=O)c(-c2nc3ccc(F)cn3c2Nc2c(C)cccc2C)c(C)c1Cl [Compound A231]     10 to 1000 nM
 6  COc1cc(C)c(-c2nc3ccc(F)cn3c2Nc2c(C)cccc2OC)c(OCC(N)=O)c1 [Compound A214]     10 to 1000 nM
 7  CCc1cc(OCCO)cc(OCC(N)=O)c1-c1nc2ccc(F)cn2c1Nc1c(C)cccc1C [Compound A195]     10 to 1000 nM
 8  Cc1cccc(C)c1Nc1c(-c2c(Cl)cccc2OCC(N)=O)nc2ccc(F)cn12 [Compound A3]     10 to 1000 nM
 9  COc1cc(C)c(-c2nc3ccc(F)cn3c2Nc2c(C)cc(C)cc2[N+](=O)[O-])c(OCC(N)=O)c1 [Compound A250]     10 to 1000 nM
10  COCCOc1cc(C)c(-c2nc3ccc(F)cn3c2Nc2c(C)cccc2C)c(OCC(N)=O)c1 [Compound A184]     10 to 1000 nM
11  COc1cc(C)c(-c2nc3c(O)cccn3c2Nc2c(C)cccc2C)c(OCC(N)=O)c1 [Compound A193]  1000 to 10000 nM
12  Cc1cccc(C)c1Nc1c(-c2ccccc2OCC(N)=O)nc2ccc(C#N)cn12 [Compound A209]  1000 to 10000 nM
13  COc1cc(C)c(-c2nc3ccc(F)cn3c2Nc2ccc(F)cc2F)c(OCC(N)=O)c1 [Compound A229]  1000 to 10000 nM
14  Cc1cccc(C)c1Nc1c(-c2ccc([N+](=O)[O-])cc2OCC(N)=O)nc2ccccn12 [Compound A179]     10 to 1000 nM
15  CCc1cc(OC)cc(OCC(N)=O)c1-c1nc2c(F)cc(F)cn2c1Nc1c(C)cc(F)cc1C [Compound A255]     10 to 1000 nM
16  Cc1cccc(C)c1Nc1c(-c2c(O)cccc2OCC(N)=O)nc2ccc(F)cn12 [Compound A175]     10 to 1000 nM
17  CCc1cc(OC)cc(OCC(N)=O)c1-c1nc2ccc(F)cn2c1Nc1c(F)cccc1F [Compound A220]     10 to 1000 nM
18  CCc1cc(OC)cc(OCC(N)=O)c1-c1nc2ccccn2c1Nc1c(C)cccc1C [Compound A202]     10 to 1000 nM
19  Cc1cccc(C)c1Nc1c(-c2c(C)cc(OCCO)cc2OCC(N)=O)nc2ccc(F)cn12 [Compound A186]     10 to 1000 nM
20  COc1cc(C)c(-c2nc3ccc(F)cn3c2Nc2c(F)cccc2Br)c(OCC(N)=O)c1 [Compound A243]     10 to 1000 nM
21  CCc1cc(OC)cc(OCC(N)=O)c1-c1nc2c(O)cccn2c1Nc1c(C)cccc1C [Compound A194]  1000 to 10000 nM
22  COc1ccc(-c2nc3ccccn3c2Nc2c(C)cccc2Cl)c(OCC(N)=O)c1 [Compound A15]     10 to 1000 nM
23  COc1cc(C)c(-c2nc3ccc(F)cn3c2Nc2c(C)cccc2C)c(OCC(N)=O)c1 [Compound A204]     10 to 1000 nM
24  Cc1cccc(C)c1Nc1c(-c2c(C)cccc2OCC(N)=O)nc2ccc(F)cn12 [Compound A2]     10 to 1000 nM
25  COc1cc(C)c(-c2nc3c(F)cc(F)cn3c2Nc2c(C)cc(F)cc2C)c(OCC(N)=O)c1 [Compound A251]     10 to 1000 nM
26  Cc1cccc(C)c1Nc1c(-c2ccccc2OCC(N)=O)nc2cccc(C)n12 [Compound A9]     10 to 1000 nM
27  COc1cc(C)c(-c2nc3ccc(F)cn3c2Nc2c(C)cc(F)cc2C)c(OCC(N)=O)c1 [Compound A234]     10 to 1000 nM
28  COc1cccc(OCC(N)=O)c1-c1nc2ccc(F)cn2c1Nc1c(C)cccc1C [Compound A1]     10 to 1000 nM
29  COc1ccc(-c2nc3ccc(F)cn3c2Nc2c(C)cccc2C)c(OCC(N)=O)c1OC [Compound A188]  1000 to 10000 nM
30  Cc1cccc(C)c1Nc1c(-c2ccccc2OCC(N)=O)nc2c(C)cccn12 [Compound A8]  1000 to 10000 nM
31  Cc1cccc(C)c1Nc1c(-c2c(C)cc(OCC(O)CO)cc2OCC(N)=O)nc2ccc(F)cn12 (centres unmarked) [Compound A208]     10 to 1000 nM
32  CCc1cc(OC)cc(OCC(N)=O)c1-c1nc2ccc(F)cn2c1Nc1c(C)cc(F)cc1C [Compound A235]     10 to 1000 nM
